Measured melting point of individual entries

Example compounds with recorded melting point:
>>> df
                                   compound  recorded_metric         result
0  NS(=O)(=O)c1cccc(-c2cccc(-c3nc(-c4ccc(C(F)(F)F)cc4F)cc(C(F)(F)F)n3)c2)c1    melting point         224 °C
1  Nc1ncc(S(=O)c2cccnc2)s1 (centres undefined)    melting point  178 to 179 °C
2     CCOC(=O)c1cn(CC)c2cc(F)c(F)c(C)c2c1=O    melting point  157 to 159 °C

Entry Brc1cccc(Oc2ncccc2OCCCc2ccncc2)c1 , melting point reported as 111 to 113 °C

Entry COc1cc(C(C)=O)ccc1OCCCCN1CCC(c2n[nH]c3ccccc23)CC1 , melting point reported as 133 to 135 °C

Entry CC(=O)Nc1nc2c(Oc3cc(-c4ccc(C(F)(F)F)cc4NC(=O)OC(C)(C)C)ncn3)cccc2s1 , melting point reported as 194 to 195 °C

Entry C=CCSC(C(=O)NC(C)=O)C(c1ccccc1)(c1ccccc1)c1ccccc1 (centres undefined) , melting point reported as 193 to 194 °C

Entry CCc1ccc(Nc2nc3cc(NC(=O)c4cc([N+](=O)[O-])ccc4Cl)ccc3o2)cc1 , melting point reported as > 250 °C

Entry CC1(C)Cc2ccoc2C(=O)N1 , melting point reported as 133 to 134 °C

Entry CC(C)(C)OC(=O)N1CC(O)C(NS(=O)(=O)c2ccc(Oc3ccccc3)cc2)C1 (centres undefined) , melting point reported as 98 to 99 °C

Entry FC(F)(F)c1ccc2c(C3CCNCC3)c[nH]c2c1 , melting point reported as 210 to 214 °C

Entry COc1ccc(CCCCC(=O)O)cc1NC(=O)C[C@H]1O[C@H](c2cccc(OC)c2OC)c2cc(Cl)ccc2N(CC(C)(C)CO)C1=O , melting point reported as 136 to 138 °C

Entry CC(=O)Nc1ccc(-c2ncc(NC(=O)OCc3ccccc3)c(=O)n2CC(=O)NC(Cc2ccccc2)C(=O)C(F)(F)F)cc1 (centres undefined) , melting point reported as 235 to 240 °C

* * *

Measured melting point of individual entries

Example molecules with recorded melting point:
                                   molecule       result
0  CC(C)N(C)c1cc2c(cc1Cl)NC(=O)CC(c1cccc(-n3nncc3CO)c1)=N2       207 °C
1  O=C(OC[C@H]1CC(=O)[C@@H]1COC(=O)c1ccccc1)c1ccccc1  93 to 94 °C
2                   CCN(CC)C(=O)C=Cc1ccccc1        65 °C

Would you kindly look at the next entry?
Entry CCCCN(CCCC)c1nc(Nc2cccc3c2C(=O)c2ccccc2C3=O)nc(N(CCCC)CCCC)n1 , melting point reported as 128 to 133 °C

* * *

Measured melting point of individual entries

Example compounds with recorded melting point:
>>> df
                                   compound         result
0  COc1cc(OC)c2c(=O)[nH]c(-c3cccc(N4CCN(C(C)CO)CC4)n3)nc2c1 (centres undefined)  202 to 204 °C
1                           COC1=CC(=O)NCC1  115 to 117 °C
2  CN1CC(=O)N2c3ccccc3Cn3c(cc4ccccc43)C2C1=O (centres undefined)  188 to 189 °C
3  Cc1ccccc1C(CCC(=O)O)Oc1cc(OCc2cccnc2)ccc1C#N (centres undefined)  130 to 134 °C

Would you kindly look at the next entry?
Entry Cc1cccc(NC(=O)NCC(=O)N(CC(=O)N(C)c2cccc(C)c2)c2ccccc2)c1 , melting point reported as 165 °C

* * *

Measured melting point of individual entries

Example compounds with recorded melting point:
                                   compound         result
0  COCC1CN(c2ccc(C3CCN(C(=O)c4ccc(C(F)(F)F)cc4)CC3)cc2)C(=O)O1 (racemic)  164 to 166 °C
1  COC(=O)C1=CC(C(=O)c2ccc(OCc3ccccc3)c(C)c2O)=CN2CCc3c([nH]c4ccccc34)C12C(=O)OC (centres undefined)         216 °C

Entry Cc1ccnc(Nc2nc(-c3ccccc3O)cs2)c1 , melting point reported as 249 to 250 °C

Entry Cc1cccc(C2CCN(C(=O)CCC(=O)c3ccc4c(c3)CCNCC4)CC2)c1 , melting point reported as 91 to 93 °C

* * *

RECORDED METRIC: melting point

Entry CC(c1ccc(OCC(=O)Nc2ccc(-c3ccc(Cl)cc3)cc2)cc1)N1CCCC1 (configuration not stated) , melting point reported as 156 to 158 °C

Entry N#Cc1cc(Cl)ncc1Cl , melting point reported as 55 to 58 °C

Entry CC(C)CCCC(C)C1CCC2C3=CC=C4CC(O)C=CC4(C)C3CCC21C (configuration not stated) , melting point reported as 126 to 127 °C

Entry NN=C(N)Nc1c(Cl)cccc1Cl , melting point reported as 281 °C

* * *

Measured melting point of individual entries

Example molecules with recorded melting point:
                                   molecule         result
0  COc1nc(CO)ccc1CN1CC1C#N (stereo not given)    68 to 70 °C
1    COc1cc2nc(C)[nH]c(=O)c2cc1OCCCN1CCOCC1  236 to 238 °C
2  CCOC(=O)C(c1ccccc1)n1cccc1 (stereo not given)    51 to 53 °C
3  O=C1CN(c2c(F)cc(N3C[C@H](CNC(=S)Nc4ccccn4)OC3=O)cc2F)CN1  194 to 196 °C

Entry C=C(C)CC(O)(C(Nc1cccc2nc(C)ncc12)c1ccc(Cl)cc1OC)C(F)(F)F (stereo not given) , melting point reported as 193 °C

* * *

Measured melting point of individual entries

Example molecules with recorded melting point:
In [3]: df
Out[3]:
                                   molecule         result
0        O=c1c(Br)cn(Cc2ccccc2)cc1Cc1ccccc1  120 to 121 °C
1    O=C(O)c1ccc2cc(-c3cc4ccccc4o3)ccn2c1=O       > 250 °C
2         Nc1nc2c(s1)CCN(CC=Cc1ccccc1Br)CC2  103 to 106 °C
3  CCOC(=O)COc1nc2cc(OC)cc(OC)c2cc1-c1ccc(OC)cc1    95 to 96 °C

Entry COCC(=O)N(c1c(C)cccc1C)C(CCO)C(=O)O (stereo unspecified) , melting point reported as 150 to 152 °C

Entry CCC(=O)Oc1ccc(-c2nc(-c3ccc(N(C)C)cc3)c(C)[nH]2)cc1OC , melting point reported as 244 to 246 °C

Entry COCCC(=O)N[C@H]1CC[C@H](CCN2CCN(c3nccc4ccoc34)CC2)CC1 , melting point reported as 146 °C

Entry CC(=O)OCC1OC(n2cc(C)c(=O)[nH]c2=O)CC1F (stereo unspecified) , melting point reported as 97 to 98 °C

Entry O=C1OCCN1c1ccc(OC(F)C(F)(F)F)cc1 (stereo unspecified) , melting point reported as 74 to 76 °C

Entry Cc1ccc(OC2SCC(O)C(O)C2O)c(-c2c(C)noc2C)n1 (stereo unspecified) , melting point reported as 70 to 84 °C

Entry CCCC(=O)c1cn(C)cc(-c2cccc(C(F)(F)F)c2)c1=O , melting point reported as 93 to 94 °C

Entry COc1nc(CC(=O)O)c([N+](=O)[O-])cc1C , melting point reported as 135 to 137 °C

Entry Cc1cccc(C)c1NC(C)C(=O)O (stereo unspecified) , melting point reported as 178 to 180 °C

Entry CC(=O)C1CCC2C3CCC4CC(O)C(Cl)CC4(C)C3C(=O)CC12C (stereo unspecified) , melting point reported as 185 to 189 °C

Entry O=C(Cl)c1c(-c2ccccc2)nn2c1-c1ccccc1CC2 , melting point reported as 109 to 110 °C

Entry CCOC(=O)c1cn(C2COC2)c2c(F)c(F)c(F)c(NCc3ccccc3)c2c1=O , melting point reported as 127 to 128 °C

Entry CCOCc1nc2c(N)nc3ccccc3c2n1NCCC(C)C , melting point reported as 129 to 132 °C

Entry CC(C)c1cc(C(C)C)c(SSc2c(C(C)C)cc(C(C)C)cc2C(C)C)c(C(C)C)c1 , melting point reported as 93 to 94 °C

* * *

Measured melting point of individual entries

Example compounds with recorded melting point:
In [3]: df
Out[3]:
                                   compound         result
0  Nc1c2c(nc3ccccc13)C1CCC2C1 (stereo not given)  185 to 186 °C
1       O=C(O)c1c[nH]c2oc3ccccc3c(=O)c2c1=O  335 to 340 °C
2  c1ccc([C@H]2CC[C@@H](Oc3ncnc4c3CCCC4)CC2)cc1         109 °C
3          Cc1cc(=O)n2cccc(SC(=O)N(C)C)c2n1  165 to 167 °C
4  NS(=O)(=O)Cc1cccc(NC(=O)c2cnn3c(C(F)(F)F)cc(-c4ccc(C(F)(F)F)cc4)nc23)c1         298 °C
5  Cn1cc(-c2cc(-c3cnc4c(c3)CC(=O)N4)ccn2)n(-c2ccc(C(C)(C)C#N)cc2)c1=O         263 °C
6       COc1ccc(-c2ccc3c(Br)c(OC)ccc3c2)cc1  172 to 174 °C
7  Cc1cc(Oc2ccc(Cl)c3c2CCCC3)c(Cl)cc1[N+](=O)[O-]  139 to 140 °C

Entry CCOC(=O)C(C#N)c1cn(C(=O)OCC)c2ccc(OC)cc12 (stereo not given) , melting point reported as 81 to 83 °C

Entry Cc1nc(N2CCOCC2)c2c(n1)N(CC(O)CO)C(=O)CO2 (stereo not given) , melting point reported as 153 to 155 °C
